TARGET: Factor H (complement factor H), plasma (Homo sapiens, UniProt P08603 P08603:19-1231)
Sequence (P08603 19-1231, one chain of several): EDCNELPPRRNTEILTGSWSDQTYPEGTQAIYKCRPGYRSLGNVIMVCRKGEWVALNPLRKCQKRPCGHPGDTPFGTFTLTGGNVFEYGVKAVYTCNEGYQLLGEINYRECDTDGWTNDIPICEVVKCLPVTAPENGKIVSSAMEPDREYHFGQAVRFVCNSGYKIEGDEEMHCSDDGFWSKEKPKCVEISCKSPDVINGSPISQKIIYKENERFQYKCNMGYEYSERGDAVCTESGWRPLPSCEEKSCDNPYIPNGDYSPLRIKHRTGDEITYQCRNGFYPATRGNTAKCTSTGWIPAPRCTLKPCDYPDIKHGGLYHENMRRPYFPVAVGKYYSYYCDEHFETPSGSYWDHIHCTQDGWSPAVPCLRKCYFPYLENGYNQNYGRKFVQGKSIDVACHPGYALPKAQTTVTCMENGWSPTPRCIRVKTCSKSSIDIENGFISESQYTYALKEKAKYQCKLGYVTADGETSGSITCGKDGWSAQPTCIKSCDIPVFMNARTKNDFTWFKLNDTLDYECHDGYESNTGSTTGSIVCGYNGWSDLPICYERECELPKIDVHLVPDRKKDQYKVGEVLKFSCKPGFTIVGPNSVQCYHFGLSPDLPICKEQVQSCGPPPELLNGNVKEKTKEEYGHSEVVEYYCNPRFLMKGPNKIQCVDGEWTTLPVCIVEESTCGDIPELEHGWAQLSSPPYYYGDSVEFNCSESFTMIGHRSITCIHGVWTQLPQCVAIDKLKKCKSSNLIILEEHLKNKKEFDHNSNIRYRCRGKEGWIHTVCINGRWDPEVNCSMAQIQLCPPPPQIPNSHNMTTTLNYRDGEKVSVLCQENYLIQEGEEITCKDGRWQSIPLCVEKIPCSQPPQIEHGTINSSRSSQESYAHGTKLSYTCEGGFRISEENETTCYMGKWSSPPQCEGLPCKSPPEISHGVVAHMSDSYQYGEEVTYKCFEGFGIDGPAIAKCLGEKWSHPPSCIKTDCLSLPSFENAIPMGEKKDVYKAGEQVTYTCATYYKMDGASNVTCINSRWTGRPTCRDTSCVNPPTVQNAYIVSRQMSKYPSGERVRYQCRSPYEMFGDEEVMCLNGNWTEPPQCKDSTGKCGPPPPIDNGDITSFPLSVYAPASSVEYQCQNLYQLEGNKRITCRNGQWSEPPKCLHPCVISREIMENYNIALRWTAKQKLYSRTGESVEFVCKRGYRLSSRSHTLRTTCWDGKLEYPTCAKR
METHOD SUMMARY: SPR; binding stability; 10 mM MgCl2, pH 7.5
CONDITIONS USED: tags: LFB preparation (Biacore, amine-coupled NHS/EDC on CM5 chip, 5813 RU); Calbiochem 341274 also used in SELEX
METRIC NAME: binding signal (RU)
Kindly answer with a numeric value in RU, unit omitted.

FAM1-5 (ssDNA) DNA: GGGTCAATGCCAGGTCTCGCAGAGGTGCGAGGGGCGGTGGGGTCTGGTGGTTATACGCATCGGCTCGCAAGCAGTC; 21.2
FAM1-7 (ssDNA) DNA: GGGTCAATGCCAGGTCTCGGGGGGCCGGTTATACGGGTCAGGCGGTTATACGGTATTCATCGGCTCGCAAGCAGTC; 15.4
FAM1-12 (ssDNA) DNA: GGGTCAATGCCAGGTCTCACCGGGTCAGGCGGTTATACGGGTGAGGGCAGGTACATACATCGGCTCGCAAGCAGTC; 18.2
FAM2-2 (ssDNA) DNA: GGGTCAATGCCAGGTCTCCCGGTTACTGCCGTAGTTGTCTTACGGTGGTGTTAGTGGCATCGGCTCGCAAGCAGTC; 22.4

Note down binding signal recorded for FAM2-3 (ssDNA) DNA: GGGTCAATGCCAGGTCTCCCGGTTACCTCCATTGGTGGTGTTAGTGGCTTTGTAGGATATCGGCTCGCAAGCAGTC
18.2

Note down binding signal recorded for IND1 (ssDNA) DNA: GGGTCAATGCCAGGTCTCGGTGGGAGGTGAGGTCGTTGGACGGTGGCAGGGGATTTTGATCGGCTCGCAAGCAGTC
20.1

Note down binding signal recorded for FAM1-6 (ssDNA) DNA: GGGTCAATGCCAGGTCTCGAGGAACGTGGGGTCAGGTGGTTATACGCAGGGTACCGGGATCGGCTCGCAAGCAGTC
30

Note down binding signal recorded for FAM1-4 (ssDNA) DNA: GGGTCAATGCCAGGTCTCGGGCCGCGATGGAGAGGGGTCTGGTGGTTATACGCTATGCATCGGCTCGCAAGCAGTC
26.2

Note down binding signal recorded for FAM4 (ssDNA) DNA: GGGTCAATGCCAGGTCTCCAAAGGGGGGGGTTGGGGGACCGTCCGTTGTTGATCTCACATCGGCTCGCAAGCAGTC
25.9

Note down binding signal recorded for FAM1-13 (ssDNA) DNA: GGGTCAATGCCAGGTCTCACCGGGTCAGGCGGTTATACGGGTGGGGGCAGGTACATACATCGGCTCGCAAGCAGTC
30.6

Note down binding signal recorded for FAM1-11 (ssDNA) DNA: GGGTCAATGCCAGGTCTCGGGGCAGGCGGTTATACGGAGAGCTTCTTACATGGGCCCTATCGGCTCGCAAGCAGTC
16.9

Note down binding signal recorded for FAM1-3 (ssDNA) DNA: GGGTCAATGCCAGGTCTCGGACCGCGATGGAGAGGGGTCTGGTGGTTATACGCTATGCATCGGCTCGCAAGCAGTC
20.9

Note down binding signal recorded for FAM2-7 (ssDNA) DNA: GGGTCAATGCCAGGTCTCCCGGTTACCAAGATCGTTGTTCTTGGTGTTAGTGGCATTCATCGGCTCGCAAGCAGTC
22.1

Note down binding signal recorded for FAM1-8 (ssDNA) DNA: GGGTCAATGCCAGGTCTCAATCAGAAGGGTCTGGTGGTTATACGTTCATGTATTGGGTATCGGCTCGCAAGCAGTC
36

Note down binding signal recorded for FAM2-4 (ssDNA) DNA: GGGTCAATGCCAGGTCTCCCGGTTACCAGTTGGTGTTTGTGGCTTTGCACGTCTGCATATCGGCTCGCAAGCAGTC
27.6

Note down binding signal recorded for FAM3 (ssDNA) DNA: GGGTCAATGCCAGGTCTCTGAGGCGCAGATGTGGAGGCTTTTACAGGCGGTGCGGAACATCGGCTCGCAAGCAGTC
11.7

Note down binding signal recorded for FAM1-9 (ssDNA) DNA: GGGTCAATGCCAGGTCTCGGGGTGCGAGGGTCTGGTGGTTATACGTCGTCACCTCTAGATCGGCTCGCAAGCAGTC
57.8
